Target: T1, human CD33 extracellular domain (human, UniProt P20138 18-259)
T1 construct: soluble monomeric ECD; also called human CD33 ECD; hCD33
Assay: BLI Octet, IgG loaded;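 also: IgGs captured on AHC biosensors, exposed to 100 nM antigen for 3 min association then 3 min dissociation in buffer, kinetics fitted with a 1:1 binding model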
ASSAY METRIC: koff (s⁻¹)
Numbers only; they are read as s⁻¹.

Before answering, review these 2 worked examples.
ADI-11828 IgG (antibody, V domains shown, IgG; also called Ab27) VH: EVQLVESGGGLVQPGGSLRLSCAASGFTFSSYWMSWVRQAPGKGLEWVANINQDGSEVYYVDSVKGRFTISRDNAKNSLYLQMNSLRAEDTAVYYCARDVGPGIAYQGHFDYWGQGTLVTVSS VL: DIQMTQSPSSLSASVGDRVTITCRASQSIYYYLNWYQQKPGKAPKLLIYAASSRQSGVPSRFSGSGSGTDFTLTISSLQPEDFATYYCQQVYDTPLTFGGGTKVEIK; 0.000533
ADI-11839 IgG (antibody, V domains shown, IgG; also called Ab28) VH: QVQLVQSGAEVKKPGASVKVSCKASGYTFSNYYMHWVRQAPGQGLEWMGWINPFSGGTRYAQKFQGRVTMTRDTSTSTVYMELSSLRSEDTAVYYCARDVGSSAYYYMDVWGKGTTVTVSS VL: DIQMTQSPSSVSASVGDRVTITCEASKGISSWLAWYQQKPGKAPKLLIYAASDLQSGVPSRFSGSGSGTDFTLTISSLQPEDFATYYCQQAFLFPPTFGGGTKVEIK; 0.00172

Now let's try a different one.
# koff of ADI-11825 IgG (antibody, V domains shown, IgG; also called Ab25) VH: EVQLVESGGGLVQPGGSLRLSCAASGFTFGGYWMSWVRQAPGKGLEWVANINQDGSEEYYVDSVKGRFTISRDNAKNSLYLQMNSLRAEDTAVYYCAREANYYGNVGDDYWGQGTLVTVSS VL: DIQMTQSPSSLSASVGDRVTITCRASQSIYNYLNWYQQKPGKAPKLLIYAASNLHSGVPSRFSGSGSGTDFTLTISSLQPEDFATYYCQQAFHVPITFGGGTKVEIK = 0.000376

Data origin, for the record: patent US20220380459A1
